- system: NLRP3 inflammasome (Homo sapiens)
- Construct: IL-1beta HTRF
- protocol.text: IL-1β TR-FRET assay (THP-1 cells differentiated to macrophages with IFN-γ, LPS primed, ATP activated; HTRF)
- reported.conditions: THP-1 macrophages, 50 ng/mL LPS priming, compound 30 min, 20 mM ATP 2 hours
pIC50: −log10 of the molar value.
property: pIC50

>  <compound>
Cc1cc(O)c(-n2cc3sc(N[C@@H]4C[C@@H](F)CN(C)C4)nc3n2)c(OC(F)F)c1

>  <pIC50>
7.92

$$$$

1 = Cc1cc(C)c(-n2cc3sc(N[C@H]4COC[C@H]4F)nc3n2)c(O)c1 [Example 144]
2 = Cc1cc(C)c(-n2cc3sc(N[C@@H]4C[C@@H](C(F)F)CN(C)C4)nc3n2)c(O)c1
Data request: Of the two listed items, 1 and 2 , which carries the larger pIC50 figure? # answer = label of selected item
Data returned: 1
(1: 6.07, 2: 5.82)

====

- System: NF-κB pathway
- protocol.text: TNF-α assay (THP-1 cells differentiated to macrophages with IFN-γ, NF-κB pathway activated with LPS; ELISA)
- Type: cell-based, Human
- reported.conditions: Homo sapiens, THP-1, THP-1 macrophages, compound 30 min, 50 ng/mL LPS 3 hours
pIC50: −log10 of the molar value.
# pIC50 values compiled below

Some solved entries appear below for comparison.
>  <compound>
Cc1cc(C)c(-n2cc3sc(N[C@@H]4CCCN(C(=O)OCC(Cl)(Cl)Cl)C4)nc3n2)c(O)c1

>  <pIC50>
5.20

$$$$
>  <compound>
Cc1cc(Cl)cc(O)c1-n1cc2c(nc(N[C@@H]3C[C@@H](F)CN(C)C3)n2C)n1

>  <pIC50>
< 4.52

$$$$
>  <compound>
Oc1cc(F)cc(Cl)c1-n1cc2sc(N[C@@H]3CCCN(C4CC4)C3)nc2n1

>  <pIC50>
< 4.52

$$$$

Data request: Give me measured pIC50, please, for this compound: Cc1cc(C)c(-n2cc3sc(NC4CCCC4O)nc3n2)c(O)c1 (centres unmarked)
Data returned: < 5.00

Data request: Give me measured pIC50, please, for this compound: COc1cc(C)c(-n2cc3sc(N[C@@H]4CN(C)C[C@H]4F)nc3n2)c(O)c1
Data returned: < 5.00

====

- system: NLRP3 inflammasome (Homo sapiens)
- Construct: IL-1beta HTRF
- protocol.text: IL-1β TR-FRET assay (THP-1 cells differentiated to macrophages with IFN-γ, LPS primed, ATP activated; HTRF)
- reported.conditions: THP-1 macrophages, 50 ng/mL LPS priming, compound 30 min, 20 mM ATP 2 hours
property: IC50 (nM)

A = Cc1cc(C)c(-n2cc3sc(NC4CCN(C)C4=O)nc3n2)c(O)c1 (stereo not shown)
B = Cc1cc(C)c(-n2cc3sc(NC4CCN(C(=O)CC5CC5)C4)nc3n2)c(O)c1 (stereo not shown)
Data request: Of the two listed items, A and B , which carries the larger IC50 figure? # answer = label of selected item
Data returned: A

====

- system: NLRP3 inflammasome (Homo sapiens, UniProt Q96P20)
- Construct: IL-1beta HTRF
- Sequence (Q96P20 whole entry): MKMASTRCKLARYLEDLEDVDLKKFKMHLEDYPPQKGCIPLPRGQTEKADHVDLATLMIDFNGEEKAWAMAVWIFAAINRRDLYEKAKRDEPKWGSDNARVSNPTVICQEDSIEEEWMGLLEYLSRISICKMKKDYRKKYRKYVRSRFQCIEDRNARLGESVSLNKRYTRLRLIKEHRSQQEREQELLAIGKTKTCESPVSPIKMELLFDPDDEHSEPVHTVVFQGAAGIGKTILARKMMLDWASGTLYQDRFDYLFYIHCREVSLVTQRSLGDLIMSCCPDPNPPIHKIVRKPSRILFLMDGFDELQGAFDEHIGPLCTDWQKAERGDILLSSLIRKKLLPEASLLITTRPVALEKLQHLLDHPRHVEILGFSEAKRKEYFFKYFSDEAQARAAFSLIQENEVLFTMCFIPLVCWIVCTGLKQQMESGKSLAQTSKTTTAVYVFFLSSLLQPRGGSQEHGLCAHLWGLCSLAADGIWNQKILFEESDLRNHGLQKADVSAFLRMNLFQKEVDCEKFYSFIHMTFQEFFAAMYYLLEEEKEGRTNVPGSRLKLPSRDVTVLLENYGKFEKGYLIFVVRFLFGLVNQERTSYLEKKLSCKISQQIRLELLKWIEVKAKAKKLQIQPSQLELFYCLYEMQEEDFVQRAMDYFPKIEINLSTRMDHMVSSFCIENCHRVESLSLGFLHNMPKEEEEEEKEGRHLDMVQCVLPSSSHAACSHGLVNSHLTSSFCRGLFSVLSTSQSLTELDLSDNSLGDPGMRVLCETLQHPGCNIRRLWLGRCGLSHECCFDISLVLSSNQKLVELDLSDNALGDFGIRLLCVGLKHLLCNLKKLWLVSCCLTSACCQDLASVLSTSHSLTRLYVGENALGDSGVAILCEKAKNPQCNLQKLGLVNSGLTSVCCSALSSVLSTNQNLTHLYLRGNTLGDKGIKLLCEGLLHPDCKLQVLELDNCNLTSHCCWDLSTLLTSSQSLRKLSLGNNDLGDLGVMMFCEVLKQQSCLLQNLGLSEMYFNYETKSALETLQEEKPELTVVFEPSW
- protocol.text: IL-1β TR-FRET assay (THP-1 cells differentiated to macrophages with IFN-γ, LPS primed, ATP activated; HTRF)
- reported.conditions: THP-1 macrophages, 50 ng/mL LPS priming, compound 30 min, 20 mM ATP 2 hours
pIC50: −log10 of the molar value.
property: pIC50

>  <molecule>
Cc1cc(C)c(-n2cc3sc(NC(CO)CO)nc3n2)c(O)c1 [Example 168]

>  <pIC50>
6.43

$$$$
>  <molecule>
Cc1cc(C)c(-n2cc3sc(NC4CCN(C)C4)nc3n2)c(O)c1 (stereo not drawn) [Example 92]

>  <pIC50>
6.57

$$$$
>  <molecule>
Cc1cc(O)c(-n2cc3sc(NC[C@@H](C)O)nc3n2)c(C2CC2(F)F)c1 (stereo partly drawn) [Example 141]

>  <pIC50>
7.23

$$$$
>  <molecule>
CCC(O)CNc1nc2nn(-c3c(C)cc(C)cc3O)cc2s1 (stereo not drawn) [Example 83]

>  <pIC50>
6.09

$$$$
>  <molecule>
Cc1cc(C)c(-n2nc3nc(N[C@@H]4C[C@@H](F)CN(C)C4)sc3c2C)c(O)c1 [Example 70]

>  <pIC50>
7.23

$$$$
>  <molecule>
Cc1cc(C)c(-n2cc3sc(NC4CCN(C)CC4)nc3n2)c(O)c1 [Example 81]

>  <pIC50>
5.51

$$$$
>  <molecule>
Cc1cc(C)c(-n2cc3sc(N[C@@H]4C[C@H](C(F)F)CN(C)C4)nc3n2)c(O)c1 [Example 33]

>  <pIC50>
5.82

$$$$
>  <molecule>
Cc1cc(C)c(-n2cc3sc(N[C@H]4CN(C(=O)CC5CC5)C[C@@H]4F)nc3n2)c(O)c1 (racemic) [Example 106]

>  <pIC50>
6.51

$$$$

P = Cc1cc(O)c(-n2cc3sc(N[C@@H]4C[C@@H](F)CN(C)C4)nc3n2)c(CC(F)F)c1 [Example 175]
Q = Cc1cc(C)c(-n2cc3sc(NC4CCCN(C)C4=O)nc3n2)c(O)c1 (stereo not drawn) [Example 118]
Data request: Please let me know which one, P or Q , has a lower measured pIC50 value. # answer = label of selected item
Data returned: Q

1 = Cc1cc(C)c(-n2cc3sc(NCC(C)(C)O)nc3n2)c(O)c1 [Example 66]
2 = Cc1cnc(-n2cc3sc(N[C@@H]4CCCN(C)C4)nc3n2)c(O)c1 [Example 63]
3 = Cc1cc(C)c(-n2cc3sc(N[C@@H]4C[C@@H](F)CN(C5CCOC5)C4)nc3n2)c(O)c1 (single isomer, unassigned) [Example 73]
4 = Cc1cc(O)c(-n2cc3sc(N[C@@H]4C[C@@H](F)CN(C)C4)nc3n2)c(C(C)C)c1 [Example 94]
5 = Cc1cc(C)c(-n2cc3sc(N[C@H]4CCN(C(=O)OC5CC5)C4)nc3n2)c(O)c1 [Example 154]
Data request: Rank by pIC50 (largest to smallest). Present the labels in the sequence the task asks for.
Data returned: 4, 1, 3, 5, 2
(4: 7.51, 1: 6.60, 3: 6.07, 5: 5.72, 2: 5.47)

I = COCCN(c1nc2nn(-c3c(C)cc(C)cc3O)cc2s1)[C@@H]1CCCN(C)C1 [Example 52]
II = Cc1cc(C)c(-n2cc3sc(N[C@H]4CN(C(=O)C(C)(C)O)C[C@@H]4F)nc3n2)c(O)c1 (racemic) [Example 123]
III = Cc1cc(O)c(-n2cc3sc(N[C@@H]4C[C@@H](F)CN(C)C4)nc3n2)c(Cl)c1 [Example 11]
Data request: Task for the reader: rank each entry by its pIC50, from the minimum upward. Present the labels in the sequence the task asks for.
Data returned: II, I, III
